Just for reference, PubChem BioAssay (NCI) is where these values come from.

Give measured TGI for each item. Keep answers brief.
Tested on: HL-60(TB) leukemia
Assay: NCI tumour cell line growth inhibition, 48 h
Numbers only, in µM.

line notation	units label	recorded value
CN(CCc1ccc(Cl)c(Cl)c1)CCN(C)CCN1CCCC1	µM	31.7
O=C(/C=C(\O)c1ccccc1)/C(=C/C(=O)c1ccccc1)NN=C(c1ccccc1)c1ccccc1	µM	6.8
Cc1cccc2c(Nc3ccc(NS(C)(=O)=O)cc3)c3ccc([N+](=O)[O-])cc3nc12	µM	7.09

In the following, a different molecule is considered.
TGI reported for this molecule O=c1c(O)cccn1CCCN(CCCn1cccc(O)c1=O)CCn1cccc(O)c1=O : 55.3

---

Test system: K-562 leukemia
Assay: NCI tumour cell line growth inhibition, 48 h
endpoint label: TGI (µM)
Numbers only, in µM.

compound	target	TGI / µM
CC1(C)CCCCCCCCCC(C)(CCCCCCCCCCCCO)C1=O (stereo unspecified)	K-562 leukemia	54.3
COc1cc(OC)cc(-c2n/c(=C\c3c(O)[nH]c4ccc(Cl)cc34)cc3c2=Nc2ccccc2-3)c1	K-562 leukemia	6.29

TGI reported for this compound O=c1[nH]cnc2sc(=S)c3c(c12)CCC3 : 29.2

---

Test system: HCC-2998 colon
Experiment: NCI tumour cell line growth inhibition, 48 h
endpoint label: TGI

// worked examples, TGI included
compound	TGI
CC/C=C\C/C=C/C=C1/C(=O)C=C[C@@H]1C/C=C\CCCC(=O)OC	3.62 µM
NS(=O)(=O)c1cccc(-c2ccc3c(NC(=O)C4CC4)n[nH]c3c2)c1	> 25 µM
O=c1c(O)cccn1CCCN(CCCn1cccc(O)c1=O)CCn1cccc(O)c1=O	> 100 µM
O=C1/C(=C/c2cccc(Br)c2)COc2ccc(O)c(O)c21	3.1 µM
C=CCC1(CC)C(=O)NC(=O)NC1=O	> 100 µM
Oc1ccc(Cl)cc1C1=N/C(=N\C/N=C2\N=C(c3cc(Cl)ccc3O)CC(c3ccccc3)N2)NC(c2ccccc2)C1 (centres undefined)	> 100 µM
Cc1cc(C)c2c(=N)c3ccccc3n(CCCCCCO)c2n1	7.07 µM
CN1CCN(c2cc3nc4ccccc4n(-c4ccc(Cl)cc4)c-3cc2=N)CC1	54.9 µM

// for each compound below, give its TGI
1. COc1cc(C(c2cccc3ccccc23)N2C(=O)CCC2C(=O)NCc2ccccc2)cc(OC)c1OC (centres undefined)
2. CC(=O)c1ccc(N2CCN(C3=CC(=O)c4c(O)ccc(O)c4C3=O)CC2)cc1
3. Cc1cc(NC(=O)c2cnc(N3CCN(CCOCCOCCOCCOCCC(=O)N[C@H](C(=O)N4C[C@H](O)C[C@H]4C(=O)N[C@@H](C)c4ccc(-c5scnc5C)cc4)C(C)(C)C)CC3)cn2)c2ncccc2c1

> 100 µM
> 100 µM
3.25 µM

// for each compound below, give its TGI
1. CNC(=S)N/N=C(\C)c1nc2ncccc2[nH]1
2. CC(=O)O[C@H]1CN(S(=O)(=O)c2ccc(C)cc2)C[C@@H]1C1CCCCC1
3. O/N=C1\CCc2nonc2\C1=N/Nc1ccccc1
4. COC(=O)/C(C#N)=C1\CCc2ccccc21
5. Cn1c2c(c3ccccc31)CCN1C(=O)C3SC21C1C(=O)N(c2ccccc2)C(=O)C31 (centres undefined)

1. > 100 µM
2. > 100 µM
3. > 100 µM
4. > 100 µM
5. > 100 µM

---

Test system: SK-OV-3 ovarian
Experiment: NCI tumour cell line growth inhibition, 48 h
Give measured TGI for each item. Keep answers brief.

compound	TGI
O=C(O)[C@@H](NS(=O)(=O)c1ccc2ccccc2c1)c1ccccc1	> 100 µM
Oc1c(Cl)cc(Cl)c2cccnc12	16.2 µM
COC(=O)/C=C/c1cc(OC)c2oc(-c3ccc(OC)c(OC)c3)c(C(=O)OC)c2c1	> 100 µM

// for each compound below, give its TGI
1. COC(=O)C1=C(C)N(NC(=O)c2ccccc2)C2(O)CCCC(=O)C12C (stereo unspecified)
2. C#CCSc1nc(N)c2ncn(C3OC(COP(=O)(O)O)C(O)C3O)c2n1 (stereo unspecified)
3. COc1cc(/C=C2\Cc3cc(OC)c(OC)cc3C2=O)cc(OC)c1

["> 100 µM", "> 239 µM", "> 84.9 µM"]

---

Test system: RPMI-8226 leukemia
Experiment: NCI tumour cell line growth inhibition, 48 h
Give measured TGI for each item. Keep answers brief.

// for each compound below, give its TGI
1. [N-]=[N+]=NC[C@H]1OCO[C@H](CN=[N+]=[N-])[C@H]2OCCOCCOc3ccccc3OCCOCCO[C@@H]21
2. CCOP(=O)(OCC)C1(O)CC(n2cc(C)c(=O)[nH]c2=O)OC1CO (centres undefined)
3. O=C(/C=C(\O)c1ccccc1)/C(=C/C(=O)c1ccccc1)NN=C(c1ccccc1)c1ccccc1
4. CC(=O)OC(C)C(OC(C)=O)C(OC(C)=O)C(/C=C/C1CC=CC(=O)O1)OC(C)=O (centres undefined)
5. CCC(=O)NC(OCC1(CC)COC1)(C(F)(F)F)C(F)(F)F
6. C=CCCCOC1[C@H](OCc2ccccc2)C(OCc2ccccc2)C(OC)O[C@@H]1CNC(=O)c1cccc(I)c1 (some centres undefined)

1. > 100 µM
2. > 100 µM
3. > 100 µM
4. 83.5 µM
5. > 100 µM
6. 9.19 µM

---

Test system: CAKI-1 renal
Assay: NCI tumour cell line growth inhibition, 48 h
endpoint label: GI50

// worked examples, GI50 included
compound	recorded value
Brc1cccc(-c2cc(-c3ccc4nccnc4c3)[nH]n2)c1	0.599 µM
CN1CCN(c2cc3nc4ccccc4n(-c4ccc(Cl)cc4)c-3cc2=N)CC1	24.6 µM
Cc1cc(NC(=O)c2cnc(N3CCN(CCOCCOCCOCCOCCC(=O)N[C@H](C(=O)N4C[C@H](O)C[C@H]4C(=O)N[C@@H](C)c4ccc(-c5scnc5C)cc4)C(C)(C)C)CC3)cn2)c2ncccc2c1	9.33 µM

In the following, a different compound is considered.
GI50 reported for this compound CCN(CC)CCCC(C)Nc1c(-c2ccccc2)cnc2cc(Cl)ccc12 (centres undefined) : 2.12 µM

---

Tested on: NCI/ADR-RES ovarian
Test: NCI tumour cell line growth inhibition, 48 h
Give measured GI50 for each item. Keep answers brief.

// worked examples, GI50 included
molecule	recorded value
Cc1cccc2c(Nc3ccc(NS(C)(=O)=O)cc3)c3ccc([N+](=O)[O-])cc3nc12	8.3 µM
O=C(NN1C(=O)CSC1c1ccc(F)cc1)C(O)c1ccccc1 (stereo not given)	> 100 µM

// for each molecule below, give its GI50
1. Nc1n[nH]c(N)c1N=Nc1ccc(O)cc1
2. O=c1c(O)cccn1CCCN(CCCn1cccc(O)c1=O)CCn1cccc(O)c1=O
3. O=c1cccc(C#CC#CCCCO)o1
4. COc1ccc2c(c1)C(=O)c1c-2c(N2CCNCC2)nc2ccccc12
5. Nc1n[nH]c2ccc([C@@H]3Nc4cc5[nH]ncc5cc4[C@H]4C5CCC(C5)[C@@H]34)cc12 (stereo not given in full)
6. CC/C=C\C/C=C/C=C1/C(=O)C=C[C@@H]1C/C=C\CCCC(=O)OC
7. C=C1C(=O)O[C@H]2[C@H]1CC/C(CNC(=O)/C=C/c1ccccc1)=C\CC[C@@]1(C)O[C@@H]21

1: 22.6 µM; 2: > 100 µM; 3: 9.47 µM; 4: 6.33 µM; 5: 0.807 µM; 6: 3.32 µM; 7: 3.29 µM

With NCI/ADR-RES ovarian as the test system, O=c1c(-c2ccccc2)coc2cc(OC/C(=N/O)c3ccc(F)cc3)ccc12 showed GI50 of 23.9 µM

---

Test system: CAKI-1 renal
Assay: NCI tumour cell line growth inhibition, 48 h
Give measured TGI for each item. Keep answers brief.

molecule	recorded value
CN1CCc2c1nc(-c1cccnc1)c1c2N(C)CC1	> 100 µM
NC(=O)C12CC3CC(CC(Br)(C3)C1)C2	> 100 µM
CC/C=C\C/C=C/C=C1/C(=O)C=C[C@@H]1C/C=C\CCCC(=O)OC	10.7 µM

// for each molecule below, give its TGI
1. COc1cc(C(c2cccc3ccccc23)N2C(=O)CCC2C(=O)NCc2ccccc2)cc(OC)c1OC (stereo not given)
2. C=C(Br)CNCC(=C)Br

1: > 100 µM; 2: > 100 µM

---

Test system: IGROV1 ovarian
Experiment: NCI tumour cell line growth inhibition, 48 h
Where a SMILES comes first, the peptide text is derived from it. [ ]: non-standard residue; d: D form. The star is where a group is joined. ξ: configuration not given here. ξD = NC(CC(=O)O)C(=O)O; Ac3c = NC1(C(=O)O)CC1; Boc = CC(C)(C)OC(=O)*; OtBu = CC(C)(C)O*
endpoint label: TGI

// worked examples, TGI included
compound	TGI
O=c1c(O)cccn1CCCN(CCCn1cccc(O)c1=O)CCn1cccc(O)c1=O	> 100 µM
COC(=O)C1(NC(=O)C(CC(=O)OC(C)(C)C)NC(=O)OC(C)(C)C)CC1 (stereo not drawn) (Boc-[ξD](OtBu)-[Ac3c]-OMe)	> 100 µM

// for each compound below, give its TGI
1. CCN1CCCC(Nc2cc(C)nc(/N=C(/N)Nc3ccc(Cl)c(Cl)c3)n2)C1 (stereo not drawn)
2. COC(=O)/C=C/c1cc(OC)c2oc(-c3ccc(OC)c(OC)c3)c(C(=O)OC)c2c1
3. O=C(O)COc1ccc(C(=O)/C(SS/C(C(=O)c2ccc(OCC(=O)O)c(Cl)c2Cl)=C2\C=C(c3ccc(Br)cc3)SS2)=C2/C=C(c3ccc(Br)cc3)SS2)c(Cl)c1Cl
4. Cc1ccc(N=C2SC(c3ccc(C)cc3)(c3ccc(C)cc3)c3ccccc32)cc1
5. N.N.N.N.N.O=S(=O)([O-])C(F)(F)F.O=S(=O)([O-])C(F)(F)F.[Os+8]
6. CC(C)(C)OC(=O)NCC(=O)NC1C/C(=N\O)c2sccc21 (stereo not drawn)

1: 3.06 µM; 2: > 100 µM; 3: 23.1 µM; 4: > 100 µM; 5: 64.1 µM; 6: > 100 µM
